Biological target: MS2 coat protein, dlFG mutant (Escherichia phage MS2, UniProt P03612, del68-81insG)
Test: 4 mM Mg2+; miR-208a RNA 100 nM (AU…UUGU); RNA-MaP array; 100 mM Tris-HCl pH 7.5, 80 mM KCl, 4 mM MgCl2, 0.1 mg/mL BSA, 1 mM DTT, 0.01 mg/mL yeast tRNA, 0.01% Tween-20; protein 1.5 nM to 3 uM; 37 C (Table S3)
Conditions: chain copies: 2; label: tethered by stalled RNA polymerase
measured-metric: Kd (nM)
Give the quantity in nM, number only.

>>> measured("Eterna 15995 (Sensor v3, turn-off variant 1) (ssRNA) RNA: UAUUAGCAAGCAAGGUCCCACAUGAGGAUCACCCAUGUGCUCGUCUUAUAAGGUACUGUGACGAAAGUCACGGUACC")
426

**Query** So what does the record say about Kd for Eterna 10111 (Sensor for hsa-mir-208a version 2) (ssRNA) RNA: AAUUAUUAACAUGAGGAUCACCCAUGUAAAACAUGGAUUAACAAGCCUUUUCGUUUUUGCUCGUCUUAUAUUAUUAA ?
**Result** 135

**Query** Same question, Eterna 10232 (Sensor for hsa-mir-208a) (ssRNA) RNA: AACCAACAAAUAAAACAAGCGUGCUCGUCACAUGAGGAUCACCCAUGUUUAAGCGCUAUUCCUACUUCCUCAGCGCC this time
**Result** 30.4
